system: TNF-α; experiment: LPS-stimulated TNF-α production in human whole blood (ELISA); type: cell-based; details: 48 hr preincubation, human blood
ATTRIBUTE MEASURED: IC50 (nM)
One number for each entry, in nM.

Looking up O=C(O)[C@@H]1NC[C@H](O)[C@@H](O)[C@@H]1O [idoBR1] , I found its IC50 recorded as 182
